Listed next: entries and their corresponding pIC50.
# target_under_test: Tyrosine-protein kinase receptor TYRO3 (Homo sapiens)
# Sequence (Q06418 whole entry): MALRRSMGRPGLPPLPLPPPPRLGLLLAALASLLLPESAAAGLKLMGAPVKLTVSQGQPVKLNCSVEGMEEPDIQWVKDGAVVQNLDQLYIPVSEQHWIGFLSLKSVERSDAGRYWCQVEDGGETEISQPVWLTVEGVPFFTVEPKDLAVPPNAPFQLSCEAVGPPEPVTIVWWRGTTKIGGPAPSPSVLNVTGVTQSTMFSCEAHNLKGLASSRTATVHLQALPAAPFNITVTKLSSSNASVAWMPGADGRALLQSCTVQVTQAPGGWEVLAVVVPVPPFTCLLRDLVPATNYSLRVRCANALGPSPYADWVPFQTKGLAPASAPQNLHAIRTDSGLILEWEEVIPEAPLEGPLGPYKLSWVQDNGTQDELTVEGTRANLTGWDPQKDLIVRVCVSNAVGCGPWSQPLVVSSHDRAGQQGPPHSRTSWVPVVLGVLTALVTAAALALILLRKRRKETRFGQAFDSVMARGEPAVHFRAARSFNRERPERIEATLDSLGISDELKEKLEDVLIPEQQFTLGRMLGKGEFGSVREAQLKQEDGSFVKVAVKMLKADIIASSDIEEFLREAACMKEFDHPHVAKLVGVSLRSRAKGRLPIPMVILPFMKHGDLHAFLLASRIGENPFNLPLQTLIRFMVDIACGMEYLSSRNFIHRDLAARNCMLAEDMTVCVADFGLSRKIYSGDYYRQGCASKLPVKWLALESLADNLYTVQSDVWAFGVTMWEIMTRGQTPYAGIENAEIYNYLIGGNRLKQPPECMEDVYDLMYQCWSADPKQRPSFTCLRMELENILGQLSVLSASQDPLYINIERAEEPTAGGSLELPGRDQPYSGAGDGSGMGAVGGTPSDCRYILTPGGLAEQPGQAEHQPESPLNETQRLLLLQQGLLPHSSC
pIC50: −log10 of the molar value.

compound	pIC50
COC1CCN(Cc2ccc(-c3cnc4[nH]cc(-c5ccc6[nH]ccc6c5)c4c3)cc2)CC1	> 7.29

Readout pIC50 for OC1CCCN(Cc2ccc(-c3cnc4[nH]cc(-c5ccc6ocnc6c5)c4c3)cc2)C1 (stereo unspecified) , test system Tyrosine-protein kinase receptor TYRO3 (Homo sapiens), was > 7.29

Readout pIC50 for Oc1ccc(-c2c[nH]c3ncc(-c4ccc(CN5CCCC(O)C5)cc4)cc23)cc1 (stereo unspecified) , test system Tyrosine-protein kinase receptor TYRO3 (Homo sapiens), was > 7.29

Readout pIC50 for CCOCc1[nH]c2ncc(-c3ccc(CN4CCCC(O)C4)cc3)cc2c1-c1cccc(F)c1 (stereo unspecified) , test system Tyrosine-protein kinase receptor TYRO3 (Homo sapiens), was > 7.29

Readout pIC50 for CN(C)Cc1[nH]c2ncc(-c3ccc(CN4CCCC(O)C4)cc3)cc2c1-c1cccc(F)c1 (stereo unspecified) , test system Tyrosine-protein kinase receptor TYRO3 (Homo sapiens), was < 6.30

Readout pIC50 for OC1CCCN(Cc2ccc(-c3cnc4[nH]cc(-c5cccc(F)c5)c4c3)cc2)C1 (stereo unspecified) , test system Tyrosine-protein kinase receptor TYRO3 (Homo sapiens), was > 7.29
